Numbers sourced from the supplement of paper PMC7877785.

protocol-notes: self-splicing fitness, log relative to wild type (ln ratio); higher = more splicing; Tetrahymena group I intron in knt gene, E. coli kanamycin selection, DiMSum; sequences stand for … in CUCUCU…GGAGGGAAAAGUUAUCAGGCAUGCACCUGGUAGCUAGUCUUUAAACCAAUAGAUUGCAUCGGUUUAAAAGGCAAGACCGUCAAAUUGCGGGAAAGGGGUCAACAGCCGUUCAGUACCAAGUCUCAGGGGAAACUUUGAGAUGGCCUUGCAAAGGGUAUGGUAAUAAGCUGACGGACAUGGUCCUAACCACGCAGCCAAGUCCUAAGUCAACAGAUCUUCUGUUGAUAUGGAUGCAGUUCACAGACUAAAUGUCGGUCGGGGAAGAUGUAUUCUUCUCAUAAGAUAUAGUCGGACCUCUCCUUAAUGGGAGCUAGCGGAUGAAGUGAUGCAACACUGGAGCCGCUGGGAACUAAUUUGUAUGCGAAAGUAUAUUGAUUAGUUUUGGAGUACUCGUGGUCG;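 further: selection with 25 µg/mL kanamycin versus none on LB agar overnight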
test-parameters: 30 °C
Parameter: self-splicing fitness (ln). Scope: all listed entries.
Lab note: record just the number, no unit beside it.

Solved cases below.
1) UAGCAGCAAUAUUACGCUAC	-2.76
2) UCUAAGCAAUAUUACGGGAG	-3.79
3) GAGAAGCAAUAUUACGCGAG	-1.75
4) CAGAAGCAAUAUUACGCAGU	-2.53
5) AUCCAGCAAUAUUACGACUU	0.167

Now for the sequence whose self-splicing fitness (ln) we want.
Form field: reported self-splicing fitness (ln) of ACGAAGCAAUAUUACGAACU
-0.572
